test system: Danio rerio embryo/larva; experiment: max % larvae with abnormal position across tested concentrations; higher = more toxic; extreme values may be limits of the assay; conditions: exposure: 6-8 hpf to 5 dpf, scored at 6 dpf
Endpoint: max % larvae (%)
A number alone suffices; assume %.

Incoming: Given the compound O=C(Cl)C(F)(F)C(F)(F)C(F)(F)C(F)(F)C(F)(F)C(F)(F)C(F)(F)F [Pentadecafluorooctanoyl chloride] (max tested concentration (log10 uM): 2) , write its reported max % larvae.
Outgoing: 12.5

Incoming: Given the compound FC(F)(F)C(F)(F)C(F)(F)C(F)(F)C(F)(F)C(F)(F)C(F)(F)C(F)(F)CCS [2-(Perfluorooctyl)ethanthiol] (max tested concentration (log10 uM): 1.60206) , write its reported max % larvae.
Outgoing: 0

Incoming: Given the compound O=C(O)C(F)(F)OC(F)(F)C(F)(F)OC(F)(F)F [Perfluoro-3,6-dioxaheptanoic acid] (max tested concentration (log10 uM): 2) , write its reported max % larvae.
Outgoing: 0

Incoming: Given the compound Cc1ccc(S(=O)(=O)OCC(F)(F)C(F)(F)C(F)(F)C(F)(F)C(F)(F)C(F)F)cc1 [1H,1H,7H-Perfluoroheptyl 4-methylbenzenesulfonate] (max tested concentration (log10 uM): 2) , write its reported max % larvae.
Outgoing: 4.17

Incoming: Given the compound C=C(C)C(=O)OCCC(F)(F)C(F)(F)C(F)(F)C(F)(F)C(F)(F)C(F)(F)C(F)(F)C(F)(F)F [2-(Perfluorooctyl)ethyl methacrylate] (max tested concentration (log10 uM): 2) , write its reported max % larvae.
Outgoing: 0

Incoming: Given the compound O=C(O)CCC(F)(C(F)(F)F)C(F)(F)F [4,4-bis(Trifluoromethyl)-4-fluoropropanoic acid] (max tested concentration (log10 uM): 2) , write its reported max % larvae.
Outgoing: 0

Incoming: Given the compound O=C(O)C(F)(F)OC(F)(F)C(F)(F)OC(F)(F)C(F)(F)OC(F)(F)C(F)(F)C(F)(F)C(F)(F)F [Perfluoro-3,6,9-trioxatridecanoic acid] (max tested concentration (log10 uM): 1) , write its reported max % larvae.
Outgoing: 50

Incoming: Given the compound FC(F)C(F)(F)COCC1CO1 (configuration not stated) [((2,2,3,3-Tetrafluoropropoxy)methyl)oxirane] (max tested concentration (log10 uM): 2) , write its reported max % larvae.
Outgoing: 8.33

Incoming: Given the compound CC(C)(C)C(=O)CC(=O)C(F)(F)C(F)(F)C(F)(F)F [(Heptafluorobutanoyl)pivaloylmethane] (max tested concentration (log10 uM): 2) , write its reported max % larvae.
Outgoing: 25

Incoming: Given the compound CCNS(=O)(=O)C(F)(F)C(F)(F)C(F)(F)C(F)(F)C(F)(F)C(F)(F)C(F)(F)C(F)(F)F [N-Ethylperfluorooctane sulfonamide] (max tested concentration (log10 uM): 1) , write its reported max % larvae.
Outgoing: 8.33

Incoming: Given the compound NCC(F)(F)C(F)(F)C(F)(F)C(F)(F)C(F)(F)C(F)(F)C(F)(F)C(F)(F)F [1H,1H-Perfluorononylamine] (max tested concentration (log10 uM): 1.60206) , write its reported max % larvae.
Outgoing: 25

Incoming: Given the compound C=CC(=O)OCCC(F)(F)C(F)(F)C(F)(F)C(F)(F)F [2-(Perfluorobutyl)ethyl acrylate] (max tested concentration (log10 uM): 2) , write its reported max % larvae.
Outgoing: 0

----------
tested on: Danio rerio embryo/larva; assay: max % larvae generally abnormal across tested concentrations; higher = more toxic; extreme values may be limits of the assay; details: exposure: 6-8 hpf to 5 dpf, scored at 6 dpf
Use 1 (yes) when the recorded max % larvae generally abnormal across tested concentrations is no lower than 20%; use 0 (no) when it is lower.

Incoming: Please check the record O=C(O)C(F)(F)C(F)(F)C(F)F [4H-Perfluorobutanoic acid] (max tested concentration (log10 uM): 2) and state if its max % larvae generally abnormal across tested concentrations is at or above 20%.
Outgoing: 0 (no)

Incoming: Please check the record OC(C(F)(F)F)(C(F)(F)F)C(O)(C(F)(F)F)C(F)(F)F [Perfluoropinacol] (max tested concentration (log10 uM): 0.477121) and state if its max % larvae generally abnormal across tested concentrations is at or above 20%.
Outgoing: 1 (yes)

Incoming: Please check the record OCCCC(F)(F)C(F)(F)C(F)(F)C(F)(F)C(F)(F)C(F)(F)C(F)(F)C(F)(F)F [3-(Perfluorooctyl)propanol] (max tested concentration (log10 uM): 2) and state if its max % larvae generally abnormal across tested concentrations is at or above 20%.
Outgoing: 0 (no)

Incoming: Please check the record NCC(F)(F)C(F)(F)C(F)(F)C(F)(F)C(F)(F)C(F)(F)F [1H,1H-Perfluoroheptylamine] (max tested concentration (log10 uM): 2) and state if its max % larvae generally abnormal across tested concentrations is at or above 20%.
Outgoing: 1 (yes)

Incoming: Please check the record FC(F)(F)C(F)(F)C(F)(F)C(F)(F)C(F)(F)CCI [1-Iodo-1H,1H,2H,2H-perfluoroheptane] (max tested concentration (log10 uM): 2) and state if its max % larvae generally abnormal across tested concentrations is at or above 20%.
Outgoing: 1 (yes)

Incoming: Please check the record O=C(O)C(F)(F)OC(F)(F)C(F)(F)OC(F)(F)C(F)(F)C(F)(F)C(F)(F)F [Perfluoro-3,6-dioxadecanoic acid] (max tested concentration (log10 uM): 2) and state if its max % larvae generally abnormal across tested concentrations is at or above 20%.
Outgoing: 1 (yes)

Incoming: Please check the record OCC(F)(F)C(F)(F)C(F)(F)C(F)(F)C(F)(F)C(F)(F)C(F)(F)C(F)(F)CO [1H,1H,10H,10H-Perfluorodecane-1,10-diol] (max tested concentration (log10 uM): 1) and state if its max % larvae generally abnormal across tested concentrations is at or above 20%.
Outgoing: 1 (yes)

Incoming: Please check the record NC(=O)C(F)(F)C(F)(F)C(F)(F)C(F)(F)C(N)=O [Octafluoroadipamide] (max tested concentration (log10 uM): 2) and state if its max % larvae generally abnormal across tested concentrations is at or above 20%.
Outgoing: 0 (no)

Incoming: Please check the record C=C(C)C(=O)OCC(F)(F)C(F)(F)C(F)(F)C(F)(F)C(F)(F)C(F)(F)C(F)(F)F [(Perfluoroheptyl)methyl methacrylate] (max tested concentration (log10 uM): 1.60206) and state if its max % larvae generally abnormal across tested concentrations is at or above 20%.
Outgoing: 0 (no)

Incoming: Please check the record O=C(O)C(F)(F)C(F)(F)C(F)(F)OC(F)(C(F)(F)F)C(F)(F)F [Perfluoro-4-isopropoxybutanoic acid] (max tested concentration (log10 uM): 2) and state if its max % larvae generally abnormal across tested concentrations is at or above 20%.
Outgoing: 0 (no)

Incoming: Please check the record O=S(=O)(O)CCC(F)(F)C(F)(F)C(F)(F)C(F)(F)C(F)(F)C(F)(F)C(F)(F)C(F)(F)F [8:2 Fluorotelomer sulfonic acid] (max tested concentration (log10 uM): 2) and state if its max % larvae generally abnormal across tested concentrations is at or above 20%.
Outgoing: 0 (no)

----------
system: Danio rerio embryo/larva; assay: max % larvae with abnormal position across tested concentrations; higher = more toxic; extreme values may be limits of the assay; details: exposure: 6-8 hpf to 5 dpf, scored at 6 dpf
Endpoint: max % larvae (%)
A number alone suffices; assume %.

Incoming: Given the compound OCCCCC(F)(F)C(F)(F)C(F)(F)C(F)(F)F [4:4 Fluorotelomer alcohol] (max tested concentration (log10 uM): 2) , write its reported max % larvae.
Outgoing: 18.8

Incoming: Given the compound COC(=O)C(F)(F)C(F)(F)OC(F)(C(F)(F)F)C(F)(F)OC(F)=C(F)F (configuration not stated) [Methyl perfluoro(3-(1-ethenyloxypropan-2-yloxy)propanoate)] (max tested concentration (log10 uM): 1.60206) , write its reported max % larvae.
Outgoing: 4.17

Incoming: Given the compound OCC(F)(F)C(F)(F)C(F)(F)C(F)F [1H,1H,5H-Perfluoropentanol] (max tested concentration (log10 uM): 2) , write its reported max % larvae.
Outgoing: 0

Incoming: Given the compound O=C(O)C(F)(F)C(F)(F)C(F)(F)C(F)(F)C(F)(F)C(F)(F)F [Perfluoroheptanoic acid] (max tested concentration (log10 uM): 2) , write its reported max % larvae.
Outgoing: 0

Incoming: Given the compound CN(C(=O)C(F)(F)C(F)(F)C(F)(F)F)[Si](C)(C)C [N-Methyl-N-trimethylsilylheptafluorobutyramide] (max tested concentration (log10 uM): 2) , write its reported max % larvae.
Outgoing: 0

Incoming: Given the compound O=C(O)CCC(F)(F)C(F)(F)C(F)(F)C(F)(F)C(F)(F)F [2H,2H,3H,3H-Perfluorooctanoic acid] (max tested concentration (log10 uM): 1.47712) , write its reported max % larvae.
Outgoing: 25

Incoming: Given the compound NC(=O)C(F)(F)C(F)(F)C(F)(F)C(F)(F)F [Nonafluoropentanamide] (max tested concentration (log10 uM): 2) , write its reported max % larvae.
Outgoing: 0

----------
system: Danio rerio embryo/larva; test: max % larvae with abnormal position across tested concentrations; higher = more toxic; extreme values may be limits of the assay; conditions: exposure: 6-8 hpf to 5 dpf, scored at 6 dpf
Endpoint: max % larvae
Please report the result as a number followed by the unit.

Incoming: Given the compound OCC(F)(F)C(F)(F)C(F)(F)C(F)(F)C(F)(F)C(F)(F)C(F)(F)C(F)(F)C(F)(F)C(F)(F)C(F)(F)F [11:1 Fluorotelomer alcohol] (max tested concentration (log10 uM): 1.30103) , write its reported max % larvae.
Outgoing: 0%

Incoming: Given the compound CCCCCCCCC(F)(F)C(F)(F)C(F)(F)C(F)(F)C(F)(F)C(F)(F)F [1-(Perfluorohexyl)octane] (max tested concentration (log10 uM): 1.60206) , write its reported max % larvae.
Outgoing: 0%

Incoming: Given the compound FC(F)(F)C(F)(F)C(F)(F)C(F)(F)C(F)(F)CCI [1-Iodo-1H,1H,2H,2H-perfluoroheptane] (max tested concentration (log10 uM): 2) , write its reported max % larvae.
Outgoing: 10.7%

Incoming: Given the compound FC(F)(F)C(F)(F)CNCC(F)(F)C(F)(F)F [Bis(1H,1H-perfluoropropyl)amine] (max tested concentration (log10 uM): 2) , write its reported max % larvae.
Outgoing: 0%

Incoming: Given the compound O=S(=O)(O)C(F)(F)C(F)(F)C(F)(F)C(F)(F)C(F)(F)C(F)(F)C(F)(F)C(F)(F)F [Perfluorooctanesulfonic acid] (max tested concentration (log10 uM): 1) , write its reported max % larvae.
Outgoing: 25%

Incoming: Given the compound NC(=O)C(F)(F)C(F)(F)C(F)(F)F [Heptafluorobutyramide] (max tested concentration (log10 uM): 2) , write its reported max % larvae.
Outgoing: 0%

Incoming: Given the compound O=C(O)C(F)(F)OC(F)(F)C(F)(F)OC(F)(F)C(F)(F)C(F)(F)C(F)(F)F [Perfluoro-3,6-dioxadecanoic acid] (max tested concentration (log10 uM): 2) , write its reported max % larvae.
Outgoing: 31.2%

Incoming: Given the compound O=C(O)C=CC(F)(C(F)(F)F)C(F)(F)F [3-(Perfluoroisopropyl)-2-propenoic acid] (max tested concentration (log10 uM): 2) , write its reported max % larvae.
Outgoing: 8.33%

Data origin, for the record: the supplement of paper PMC11281043
